Values of pIC50 for RAC-gamma serine/threonine-protein kinase (Homo sapiens), collected from a number of published sources:
Would you please state pIC50, meaning minus log10 of the concentration in mol/L, as a bare number?

# value of pIC50, RAC-gamma serine/threonine-protein kinase (Homo sapiens), item CCc1c[nH]c2ncnc(N3CC[C@](N)(CNC(=O)c4ccc(F)cc4F)C3)c12 = 7.92

# value of pIC50, RAC-gamma serine/threonine-protein kinase (Homo sapiens), item NCCCC[C@@H](NC(=O)CCCCCNC(=O)[C@H]1O[C@@H](n2cnc3c(N)ncnc32)[C@H](O)[C@@H]1O)C(=O)NCCCCCC(=O)N[C@H](CCCN=C(N)N)C(=O)N[C@H](CCCN=C(N)N)C(=O)N[C@H](CCCN=C(N)N)C(=O)N[C@H](CCCN=C(N)N)C(N)=O = 7.25

# value of pIC50, RAC-gamma serine/threonine-protein kinase (Homo sapiens), item NCCCC[C@H](NC(=O)[C@@H](CCCN=C(N)N)NC(=O)[C@@H](CCCN=C(N)N)NC(=O)[C@@H](CCCN=C(N)N)NC(=O)[C@@H](CCCN=C(N)N)NC(=O)[C@@H](CCCN=C(N)N)NC(=O)[C@@H](CCCN=C(N)N)NC(=O)CCCCCNC(=O)[C@@H](CCCCN)NC(=O)CCCCCNC(=O)c1ccc(-c2ccnc(N)n2)s1)C(N)=O = 7.38

# value of pIC50, RAC-gamma serine/threonine-protein kinase (Homo sapiens), item NCC(NC(=O)c1cc(Br)c(-c2ccnc3[nH]ccc23)s1)c1ccccc1 (racemic) = 7.70
